TARGET_UNDER_TEST: MMP-2h (Homo sapiens (Human), UniProt P08253)
Sequence (P08253 110-660): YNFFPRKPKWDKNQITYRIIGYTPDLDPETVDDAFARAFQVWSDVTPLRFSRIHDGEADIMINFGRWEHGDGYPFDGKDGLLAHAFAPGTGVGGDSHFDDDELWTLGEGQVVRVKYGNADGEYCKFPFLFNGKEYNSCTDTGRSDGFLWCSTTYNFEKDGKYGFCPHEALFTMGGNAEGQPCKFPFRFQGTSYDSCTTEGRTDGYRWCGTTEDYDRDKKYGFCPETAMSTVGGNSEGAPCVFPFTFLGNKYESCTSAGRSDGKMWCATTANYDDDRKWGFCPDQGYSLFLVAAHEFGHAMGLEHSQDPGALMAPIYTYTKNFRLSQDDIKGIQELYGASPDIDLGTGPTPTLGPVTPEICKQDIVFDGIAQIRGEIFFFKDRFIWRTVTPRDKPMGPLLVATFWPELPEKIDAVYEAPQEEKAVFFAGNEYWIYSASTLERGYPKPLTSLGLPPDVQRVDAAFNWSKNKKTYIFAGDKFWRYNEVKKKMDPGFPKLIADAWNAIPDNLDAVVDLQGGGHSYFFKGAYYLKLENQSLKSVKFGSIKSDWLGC
TEST_NAME: Inhibition constant (Ki) on MMP-2h
Format: biochemical
CONDITION_DETAILS: read-out: Ki MMP-2h; human MMP-2
I'd appreciate it if you could supply pKi values for the items below.
Remember, pKi is on a log scale: it is -log10 of the molar concentration.

Ask: Any idea what pKi was measured for C[C@H](NC(=O)CCc1ccc(-c2ccc(-c3ccccc3)cc2)cc1)C(=O)N[C@@H](CCC(=O)O)C(N)=O ?
Result: 6.07

Ask: Recorded pKi of NC(=O)[C@H](CC(=O)O)NC(=O)[C@H](CC(=O)O)NC(=O)CCc1cc(-c2ccc(-c3ccccc3)cc2)no1 , please.
Result: 7.28

Ask: Reported pKi, molecule NC(=O)[C@H](Cc1c[nH]cn1)NC(=O)[C@H](CCC(=O)O)NC(=O)CCc1ccc(-c2cccs2)cc1 : ____
Result: 6.43

Ask: Given the entry NC(=O)[C@@H](CCC(=O)O)NC(=O)[C@H](CCC(=O)O)NC(=O)CCc1cc(-c2ccc(-c3cccc(Cl)c3)cc2)no1 , report its measured pKi.
Result: 6.95

Ask: Given the molecule NCCCC[C@H](NC(=O)CCc1ccc(-c2ccc(-c3ccccc3)cc2)cc1)C(=O)N[C@@H](CCC(=O)O)C(N)=O , what is its reported pKi?
Result: 6.27

Ask: Find the recorded pKi belonging to NC(=O)[C@H](CC(=O)O)NC(=O)[C@H](CCC(=O)O)NC(=O)CCc1ccc(-c2ccccc2)cc1 and report it.
Result: 6.05

Ask: Report pKi for NC(=O)[C@H](Cc1c[nH]cn1)NC(=O)[C@H](CCC(=O)O)NC(=O)CCc1ccc(-c2ccccc2)cc1 please.
Result: 6.07

Ask: Query (molecule): NC(=O)[C@H](CC(=O)O)NC(=O)[C@H](CCC(=O)O)NC(=O)CCc1ccc(-c2cccs2)cc1 ; field requested: pKi
Result: 6.48

Ask: Can you share its pKi? I mean this molecule: NC(=O)CC[C@H](NC(=O)[C@H](CCC(=O)O)NC(=O)CCc1cc(-c2ccc(-c3ccccc3)cc2)no1)C(N)=O
Result: 7.41

Ask: What value of pKi has been reported for the following molecule? NC(=O)[C@H](Cc1ccc(O)cc1)NC(=O)[C@H](CCC(=O)O)NC(=O)CCc1ccc(-c2cccs2)cc1
Result: 6.85

Ask: // query pKi value for entry O=C(O)CC[C@H](NC(=O)CCc1ccc(-c2ccc(-c3ccccc3)cc2)cc1)C(=O)Nc1cccc(CC(=O)O)c1
Result: 7.74

Ask: # pKi lookup, item NC(=O)[C@H](CCC(=O)O)NC(=O)[C@H](CC(=O)O)NC(=O)CCc1ccc(-c2cc(-c3ccccc3)cs2)cc1
Result: 6.06

Ask: Form field: reported pKi of C[C@H](NC(=O)[C@H](CCC(=O)O)NC(=O)CCc1ccc(-c2ccc(-c3ccccc3)cc2)cc1)C(N)=O
Result: 7.31

Ask: Any idea what its pKi is? The molecule is NC(=O)[C@H](CCC(=O)O)NC(=O)[C@H](CO)NC(=O)CCc1ccc(-c2ccc(-c3ccccc3)cc2)cc1
Result: 6.14

Ask: Need pKi, item C[C@H](NC(=O)[C@H](CCC(=O)O)NC(=O)CCc1cc(-c2ccc(-c3ccccc3)cc2)no1)C(N)=O
Result: 7.11

Ask: Reported pKi, molecule C[C@H](NC(=O)[C@H](CCC(=O)O)NC(=O)CCc1ccc(-c2cccs2)cc1)C(N)=O : ____
Result: 6.46

Ask: Field request: pKi | item: NC(=O)[C@H](CCC(=O)O)NC(=O)CCc1ccc(-c2cc(-c3ccccc3)cs2)cc1
Result: 6.42

Ask: Given the molecule NC(=O)[C@@H](CCC(=O)O)NC(=O)[C@@H](CCC(=O)O)NC(=O)CCc1cc(-c2ccc(-c3cccc(Cl)c3)cc2)no1 , what is its reported pKi?
Result: 6.27

Ask: Any idea what pKi was measured for NC(=O)CC[C@H](NC(=O)[C@H](CCC(=O)O)NC(=O)CCc1ccc(-c2cccs2)cc1)C(N)=O ?
Result: 6.69

----------
TARGET_UNDER_TEST: MMP-14h (Homo sapiens (Human))
TEST_NAME: Inhibition constant (Ki) on MMP-14h
Type: biochemical
CONDITION_DETAILS: read-out: Ki MMP-14h; human MMP-14
METRIC_NAME: Ki

Ask: What Ki appears in the records for this molecule with MMP-14h (Homo sapiens (Human))? NCCCC[C@H](NC(=O)[C@H](CCC(=O)O)NC(=O)CCc1ccc(-c2ccc(-c3ccccc3)cc2)cc1)C(N)=O [Compound 63]
Result: > 1000 nM

Ask: Which Ki is reported with MMP-14h (Homo sapiens (Human)) for this entry: NC(=O)CC[C@H](NC(=O)[C@H](CCC(=O)O)NC(=O)CCc1cc(-c2ccc(-c3ccccc3)cc2)no1)C(N)=O [Compound 21] ?
Result: > 1000 nM

Ask: So what Ki did NC(=O)[C@H](CCC(=O)O)NC(=O)[C@H](CC(=O)O)NC(=O)CCc1ccc(-c2ccc(-c3ccccc3)cc2)cc1 [Compound 74] get with MMP-14h (Homo sapiens (Human))?
Result: > 1000 nM

----------
TARGET_UNDER_TEST: MMP-7h (Homo sapiens (Human))
Sequence (P09237 95-267): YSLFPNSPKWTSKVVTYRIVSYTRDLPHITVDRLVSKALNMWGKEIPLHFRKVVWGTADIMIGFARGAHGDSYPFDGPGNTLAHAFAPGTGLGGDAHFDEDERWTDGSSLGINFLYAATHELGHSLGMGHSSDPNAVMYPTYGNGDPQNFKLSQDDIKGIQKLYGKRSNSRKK
TEST_NAME: Inhibition constant (Ki) on MMP-7h
Type: biochemical
CONDITION_DETAILS: read-out: Ki MMP-7h; human MMP-7
From the text: The inhibition constant Ki of these compounds has been determined according to the protocol described by Devel et al, 2006, J. Biol. Chem. (7). In this table I and also in table II below, “h” corresponds to human. All of the compounds have therefore been evaluated on human MMPs.
METRIC_NAME: Ki

Ask: Quick check: Ki of NC(=O)[C@H](CCC(=O)O)NC(=O)CCc1ccc(-c2cc(-c3ccccc3)cs2)cc1 [Compound 105] ?
Result: > 10 µM

Ask: Give its Ki value. Item: NC(=O)[C@H](CCC(=O)O)NC(=O)[C@H](CCC(=O)O)NC(=O)CCc1cc(-c2ccc(-c3cccc(Cl)c3)cc2)no1 [Compound 3]
Result: > 1 µM

Ask: Looking for the measured Ki of NC(=O)[C@H](CCC(=O)O)NC(=O)[C@H](CCC(=O)O)NC(=O)CCc1ccc(-c2cccs2)cc1 [Compound 80] , can you help?
Result: > 1 µM

Ask: // lookup Ki for NC(=O)[C@H](CCC(=O)O)NC(=O)[C@H](CCC(=O)O)NC(=O)CCc1cc(-c2ccccc2)no1 [Compound 14]
Result: > 10 µM

Ask: Ki lookup needed for NC(=O)[C@H](CCCC(=O)O)NC(=O)[C@H](CCC(=O)O)NC(=O)CCc1ccc(-c2cc(-c3ccccc3)cs2)cc1 [Compound 103] , thanks.
Result: > 5 µM

Ask: What does the data say about its Ki? Entry: NC(=O)[C@H](CC(=O)O)NC(=O)[C@H](CCC(=O)O)NC(=O)CCc1ccc(-c2cc(-c3ccccc3)cs2)cc1 [Compound 101]
Result: > 100 µM

Ask: Using the record for NC(=O)CC[C@H](NC(=O)[C@H](CCC(=O)O)NC(=O)CCc1ccc(-c2cc(-c3ccccc3)cs2)cc1)C(N)=O [Compound 99] , report its Ki.
Result: > 10 µM

----------
Please respond with reported Ki for every item in the list.
TARGET_UNDER_TEST: MMP-14h (Homo sapiens (Human), UniProt P50281)
TEST_NAME: Inhibition constant (Ki) on MMP-14h
Format: biochemical
CONDITION_DETAILS: read-out: Ki MMP-14h; human MMP-14

Ask: For COc1cccc(-c2ccc(CCC(=O)N[C@@H](CCC(=O)O)C(=O)N[C@@H](CCC(=O)O)C(N)=O)cc2)c1 [Compound 59] , what is its reported Ki?
Result: > 10000 nM

Ask: Sample Cc1nc(-c2ccc(CCC(=O)N[C@@H](CCC(=O)O)C(=O)N[C@@H](CCC(=O)O)C(N)=O)cc2)no1 [Compound 34] — what was its Ki?
Result: > 1000 nM

Ask: Name the reported Ki value associated with the compound NC(=O)CC[C@H](NC(=O)[C@H](CCC(=O)O)NC(=O)CCc1ccc(-c2cc(-c3ccccc3)cs2)cc1)C(N)=O [Compound 99]
Result: > 1000 nM

Ask: Query: Ki; subject: NCCCC[C@H](NC(=O)[C@H](CCC(=O)O)NC(=O)CCc1ccc(-c2ccccc2)cc1)C(N)=O [Compound 44]
Result: > 5000 nM

Ask: Query: Ki; subject: CC(C)C[C@H](NC(=O)[C@H](CCC(=O)O)NC(=O)CCc1ccc(-c2cccs2)cc1)C(N)=O [Compound 88]
Result: > 1000 nM

Ask: If you can, please state the reported Ki value of NC(=O)[C@H](Cc1c[nH]cn1)NC(=O)[C@H](CCC(=O)O)NC(=O)CCc1ccc(-c2ccccc2)cc1 [Compound 48] .
Result: > 10000 nM

Ask: Consider the compound NC(=O)CC[C@H](NC(=O)[C@H](CCC(=O)O)NC(=O)CCc1ccc(-c2cccs2)cc1)C(N)=O [Compound 81] and give its measured Ki.
Result: > 1000 nM
